# Protocol Notes: chemical genetic growth profiling, strain panel (AID 1159580);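 note: tested at 20 µM; growth read once vehicle control cultures reached saturation at 30 °C; 1 = growth at the plate median or of vehicle wells; lower values mean less growth of the strain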
# Experimental Conditions: S. cerevisiae deletion strains, growth OD, locus YDL035C, strain GPR1, stronger effect = lower value
The campaign covered roughly 5,500 compounds. About 2,000 (36%) were called active. About 18% were inconclusive and are not listed. The list shows a part of the results.
Experimental Readout: normalized growth
Answers are plain numbers.

Please review the following examples before continuing.
CC1(C)C2CC[C@]3(C)C(C(=O)C=C4[C@@H]5C[C@@](C)(C(=O)O)CC[C@]5(C)CC[C@]43C)[C@@]2(C)CC[C@@H]1OC(=O)CCC(=O)O (stereo partly drawn) = 0.968
CCC1(c2ccccc2)C(=O)NCNC1=O = 1.01
CCCCCC(=O)O[C@]1(C(C)=O)CCC2C3CCC4=CC(=O)CC[C@]4(C)C3CC[C@@]21C (stereo partly drawn) = 1.02
OCC(O)Cc1ccc2c(c1)OCO2 (stereo not drawn) = 1.02
COc1ccc2cc1Oc1ccc(cc1)C[C@H]1c3cc(c(OC)cc3CCN1C)Oc1c(OC)c(OC)cc3c1[C@H](C2)N(C)CC3 = 0.977
CCCCCC(C)N (stereo not drawn) = 1.02
CC(C)[N+](C)(CCOC(=O)C1c2ccccc2Oc2ccccc21)C(C)C = 1.01
C=CC(C)(C)c1c2c(c(O)c3c(=O)c4ccc(O)c(O)c4oc13)C=CC(C)(C)O2 = 0.601
CC1(C)C2CC[C@]3(C)C(C(=O)C=C4[C@H]5C[C@@](C)(C(=O)O)CC[C@]5(C)CC[C@]43C)[C@@]2(C)CC[C@@H]1O (stereo partly drawn) = 0.969
C=C(C)/C=C1/C=CC(=O)C(C)=C1 = 0.185

Record normalized growth for all entries; do not skip any.
1. CC(=O)O[C@@](C)(CCC=C(C)C)C1CC=C(C)CC1 (stereo partly drawn)
2. COc1ccc2c(c1)[C@@]1(C)CCC(=O)C[C@H]1CC2
3. Cc1ccc(O)cc1

[1.01, 1.01, 1.01]
